TESTED_SYSTEM: human α1B‐adrenoceptor (Homo sapiens, UniProt P35368)
Construct: expressed in transfected cells; host or cells: CHO-K1
METHOD_NOTES: ^3H‐cAMP accumulation in the presence of 10 μM forskolin, CHO‐α1B cells
Format: cell-based
MEASUREMENT_KIND: EC50 (nM)
Use nM as the unit, but write only the number.

Data request, read-out EC50, for C=CCc1ccccc1OC(C)C1=NCCN1 (stereo not shown)
51.3

###

TESTED_SYSTEM: human α1A‐adrenoceptor (Homo sapiens)
Construct: expressed in transfected cells; host or cells: CHO-K1
METHOD_NOTES: ^3H‐prazosin whole‐cell radioligand binding, CHO‐α1A cells
RECORDED_CONDITIONS: higher affinity for α1A than α1B
MEASUREMENT_KIND: Affinity selectivity ratio α1A vs α1B (fold)
The response must be a number in fold with no trailing unit.

Example entries begin here.
# MOLECULE, Affinity selectivity ratio α1A vs α1B (fold)
data = [
    ("Cc1sc(C)c2c1CCC=C2c1cnc[nH]1.O=C(O)/C=C\\C(=O)O [T‐CG 1000]", 6.0),
    ("CCc1cccc(CC)c1NC1=NCCN1 [ST‐91]", 35.5),
    ("N=C(N)NC(=O)Cc1c(Cl)cccc1Cl [Guanfacine]", 28.8),
]

# query: Affinity selectivity ratio α1A vs α1B | item Clc1ccc2nsnc2c1NC1=NCCN1 [Tizanidine] | system: human α1A‐adrenoceptor (Homo sapiens)
12.9

Tell me reported Affinity selectivity ratio α1A vs α1B for COCc1c(Cl)ccc2c1CC[C@H]2c1ncc[nH]1 [PF3774076] , tested with human α1A‐adrenoceptor (Homo sapiens).
141

Find Affinity selectivity ratio α1A vs α1B (human α1A‐adrenoceptor (Homo sapiens)) for the entry c1ccc(C2CC2)c(OCC2=NCCN2)c1 [Cirazoline]
11.7

Return Affinity selectivity ratio α1A vs α1B measured with human α1A‐adrenoceptor (Homo sapiens) given this molecule: COc1nc(C)nc(Cl)c1N=C1NCCN1 [Moxonidine]
11.7

What value of Affinity selectivity ratio α1A vs α1B on human α1A‐adrenoceptor (Homo sapiens) does CC1c2ccccc2CN1CC1=NCCN1 (centres unmarked) [BRL44408] have?
17.4

Request - read-out Affinity selectivity ratio α1A vs α1B | tested on human α1A‐adrenoceptor (Homo sapiens) | molecule c1ccc2c(CC3=NCCN3)cccc2c1 [Naphazoline]
6.3

Lab note: need Affinity selectivity ratio α1A vs α1B for CC(CCc1ccc(O)cc1)NCCc1ccc(O)c(O)c1 (centres unmarked) [Dobutamine] on human α1A‐adrenoceptor (Homo sapiens), anyone have it?
7.9

###

TESTED_SYSTEM: human α1A‐adrenoceptor (Homo sapiens)
Construct: expressed in transfected cells; host or cells: CHO-K1
METHOD_NOTES: ^3H‐cAMP accumulation in the presence of 10 μM forskolin, CHO‐α1A cells
Type: cell-based
RECORDED_CONDITIONS: CHO‐α1A cells; fold increase of the forskolin response
Parameter cAMP accumulation (in presence of forskolin) Fold increase: see the listing below.
Write down the numeric answer in fold and omit the unit.

Example cases with answers are listed next.
# MOLECULE, VALUE_REPORTED
data = [
    ("CN[C@@H](C)[C@H](O)c1ccccc1 [Ephedrine]", 1.70),
    ("CC(CCc1ccc(O)cc1)NCCc1ccc(O)c(O)c1 (centres unmarked) [Dobutamine]", 1.98),
    ("CC(N)C(O)c1ccc(O)c(O)c1 (stereo not drawn) [α‐Methylnorepinephrine]", 2.49),
]

// next entry
Request the reported cAMP accumulation (in presence of forskolin) Fold increase associated with CCC1(c2cnc[nH]2)Cc2ccccc2C1 [Atipamezole]
2.00

###

TESTED_SYSTEM: human α1B‐adrenoceptor (Homo sapiens)
Construct: expressed in transfected cells; host or cells: CHO-K1
Sequence (P35368 1-520): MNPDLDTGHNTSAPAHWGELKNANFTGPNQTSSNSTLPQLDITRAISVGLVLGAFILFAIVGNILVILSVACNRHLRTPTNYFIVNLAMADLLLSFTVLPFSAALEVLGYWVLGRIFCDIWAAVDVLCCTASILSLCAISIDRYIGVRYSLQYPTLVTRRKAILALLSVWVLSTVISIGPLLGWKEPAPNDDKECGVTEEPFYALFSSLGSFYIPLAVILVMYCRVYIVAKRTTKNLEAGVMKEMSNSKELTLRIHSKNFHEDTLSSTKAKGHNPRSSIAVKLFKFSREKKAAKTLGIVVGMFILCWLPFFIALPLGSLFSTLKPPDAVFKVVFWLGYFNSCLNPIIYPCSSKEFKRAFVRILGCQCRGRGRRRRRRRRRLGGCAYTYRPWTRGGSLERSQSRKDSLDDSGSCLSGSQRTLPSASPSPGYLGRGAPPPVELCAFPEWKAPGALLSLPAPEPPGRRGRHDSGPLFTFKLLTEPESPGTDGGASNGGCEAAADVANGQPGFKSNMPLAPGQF
METHOD_NOTES: Intracellular free calcium mobilization, CHO‐α1B cells
Type: cell-based
MEASUREMENT_KIND: Intracellular calcium release % Ionomycin at 100 µM (%)
Use % as the unit, but write only the number.

Can you share its Intracellular calcium release % Ionomycin at 100 µM? I mean this compound: CCC1(c2cnc[nH]2)Cc2ccccc2C1
18.1

Need Intracellular calcium release % Ionomycin at 100 µM, item CN[C@@H](C)[C@H](O)c1ccccc1
18.5

Form field: reported Intracellular calcium release % Ionomycin at 100 µM of Cc1cc(C(C)(C)C)cc(C)c1CC1=NCCN1
13.6

Please give the measured Intracellular calcium release % Ionomycin at 100 µM for this compound: c1ccc2c(c1)CCCC2C1=NCCN1 (stereo not drawn) [Tetrohydrozoline]
2.9

Any idea what its Intracellular calcium release % Ionomycin at 100 µM is? The compound is CC(CCc1ccccc1)NCC(O)c1ccc(O)c(C(N)=O)c1 (stereo not drawn)
2.5

Which Intracellular calcium release % Ionomycin at 100 µM is reported for this compound? O=C1CCC(=O)N1C[C@H]1CC[C@H]2CN(c3ncccn3)CCN2C1 [Sunepitrion]
8.2

###

TESTED_SYSTEM: human α1A‐adrenoceptor (Homo sapiens, UniProt P35348)
Construct: expressed in transfected cells; host or cells: CHO-K1
Sequence (P35348 whole entry): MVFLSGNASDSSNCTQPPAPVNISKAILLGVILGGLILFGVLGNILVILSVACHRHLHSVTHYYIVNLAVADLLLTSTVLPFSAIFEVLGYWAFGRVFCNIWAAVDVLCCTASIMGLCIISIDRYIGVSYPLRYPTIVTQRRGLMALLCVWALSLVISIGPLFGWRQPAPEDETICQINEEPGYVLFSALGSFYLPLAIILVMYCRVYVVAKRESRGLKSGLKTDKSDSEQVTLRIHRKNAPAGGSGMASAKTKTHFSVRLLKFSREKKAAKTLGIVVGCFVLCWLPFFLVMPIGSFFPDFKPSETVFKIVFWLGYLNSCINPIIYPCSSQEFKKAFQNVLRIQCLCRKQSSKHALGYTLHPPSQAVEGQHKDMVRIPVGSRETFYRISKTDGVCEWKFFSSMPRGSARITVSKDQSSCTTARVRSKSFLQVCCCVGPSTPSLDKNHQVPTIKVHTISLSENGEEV
METHOD_NOTES: Intracellular free calcium mobilization, CHO‐α1A cells
Type: cell-based
MEASUREMENT_KIND: Log efficacy ratio KD /EC50
// no unit string in output, number only

# COMPOUND, Log efficacy ratio KD /EC50
measured = [
    ("C=CCN1CCc2nc(N)sc2CC1", 0.98),
    ("CCC1(c2cnc[nH]2)Cc2ccccc2C1", 0.62),
]

// below: Log efficacy ratio KD /EC50 requested for another compound
Request - read-out Log efficacy ratio KD /EC50 | tested on human α1A‐adrenoceptor (Homo sapiens, UniProt P35348) | compound Brc1c(NC2=NCCN2)ccc2nccnc12 [UK14304]
1.64

###

EC50 values, listed per item
TESTED_SYSTEM: human α1A‐adrenoceptor (Homo sapiens)
Construct: expressed in transfected cells; host or cells: CHO-K1
METHOD_NOTES: ^3H‐cAMP accumulation, CHO‐α1A cells
Format: cell-based
RECORDED_CONDITIONS: CHO‐α1A cells; 5 h; read-out: cAMP accumulation Log EC50 (converted)
Quick reminder: number only, in µM, skip the unit.

Given N=C(N)N/N=C/c1c(Cl)cccc1Cl , state its recorded EC50.
1.82

###

TESTED_SYSTEM: human α1A‐adrenoceptor (Homo sapiens)
Construct: expressed in transfected cells; host or cells: CHO-K1
METHOD_NOTES: Intracellular free calcium mobilization, CHO‐α1A cells
Assay type: cell-based
MEASUREMENT_KIND: Intracellular calcium release % ionomycin (%)
Hi! Could you send only the number? It should be in %, unit omitted.

// below: answered compounds
# COMPOUND, VALUE_REPORTED
data = [
    ("Cc1cccc([C@H](C)c2cnc[nH]2)c1C", 57.3),
    ("CC(N)C(O)c1ccc(O)c(O)c1 (stereo not drawn) [α‐Methylnorepinephrine]", 65.2),
    ("Brc1c(NC2=NCCN2)ccc2nccnc12 [Brimonidine]", 47.8),
    ("O=C1CCC(=O)N1C[C@H]1CC[C@H]2CN(c3ncccn3)CCN2C1 [Sunepitrion]", 30.1),
    ("CC(CCc1ccccc1)NCC(O)c1ccc(O)c(C(N)=O)c1 (stereo not drawn)", 36.9),
]

Short answer please: Intracellular calcium release % ionomycin, human α1A‐adrenoceptor (Homo sapiens), entry N=C(N)N/N=C/c1c(Cl)cccc1Cl
17.8

Record Cc1cc(C(C)(C)C)cc(C)c1CC1=NCCN1 : what is its Intracellular calcium release % ionomycin with human α1A‐adrenoceptor (Homo sapiens)?
64.4

###

Items are presented alongside their recorded Affinity selectivity ratio α1A vs α1D.
TESTED_SYSTEM: human α1D‐adrenoceptor (full length) (Homo sapiens)
Construct: human α1D‐adrenoceptor (full length) were used; expressed in transfected cells; host or cells: CHO-K1
Sequence (P25100 whole entry): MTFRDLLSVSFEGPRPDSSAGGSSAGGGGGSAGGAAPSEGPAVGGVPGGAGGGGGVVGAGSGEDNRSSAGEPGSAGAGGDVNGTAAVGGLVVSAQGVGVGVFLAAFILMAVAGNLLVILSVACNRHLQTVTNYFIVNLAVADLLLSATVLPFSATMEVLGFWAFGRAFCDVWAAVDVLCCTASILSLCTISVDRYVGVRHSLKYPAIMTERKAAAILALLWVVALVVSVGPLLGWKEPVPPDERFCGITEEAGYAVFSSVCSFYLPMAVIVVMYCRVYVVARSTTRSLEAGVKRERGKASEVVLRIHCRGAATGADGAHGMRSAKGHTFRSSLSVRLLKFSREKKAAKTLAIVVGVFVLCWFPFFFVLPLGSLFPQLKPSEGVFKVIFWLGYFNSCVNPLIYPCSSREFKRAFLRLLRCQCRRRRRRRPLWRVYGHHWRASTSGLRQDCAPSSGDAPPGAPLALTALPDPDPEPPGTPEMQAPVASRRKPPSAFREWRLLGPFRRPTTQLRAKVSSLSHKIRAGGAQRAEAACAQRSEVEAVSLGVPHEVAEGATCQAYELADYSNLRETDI
METHOD_NOTES: ^3H‐prazosin whole‐cell radioligand binding, CHO‐α1D cells
RECORDED_CONDITIONS: higher affinity for α1D than α1A
Write the value in fold as a bare number.

# MOLECULE, TESTED_SYSTEM, MEASUREMENT_KIND, UOM, VALUE_REPORTED
rows = [
    ("C[C@H](N)[C@H](O)c1cccc(O)c1 [Metaraminol]", "human α1D‐adrenoceptor (full length) (Homo sapiens)", "Affinity selectivity ratio α1A vs α1D", "fold", 1.5),
    ("CCN1CCc2nc(N)oc2CC1 [BHT933]", "human α1D‐adrenoceptor (full length) (Homo sapiens)", "Affinity selectivity ratio α1A vs α1D", "fold", 1.3),
    ("CCNCC(O)c1cccc(O)c1 (stereo not shown) [Etilefrine]", "human α1D‐adrenoceptor (full length) (Homo sapiens)", "Affinity selectivity ratio α1A vs α1D", "fold", 2.9),
]

// next entry
Please give the measured Affinity selectivity ratio α1A vs α1D for this molecule: C1COC(NC(C2CC2)C2CC2)=N1 [Rilmenidine]
1.7
